# credit: patent US20240158446A1

system under test: UniProt P01116
Sequence (P01116 whole entry): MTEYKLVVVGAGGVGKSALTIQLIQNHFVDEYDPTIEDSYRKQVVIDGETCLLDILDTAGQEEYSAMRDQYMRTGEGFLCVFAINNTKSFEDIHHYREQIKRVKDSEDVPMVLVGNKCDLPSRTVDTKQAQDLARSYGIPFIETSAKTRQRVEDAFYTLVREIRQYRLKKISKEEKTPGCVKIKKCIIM
assay overview: Binding to KRAS by surface plasmon resonance (SPR), Single Cycle Kinetics
run conditions: SPR, Single Cycle Kinetics, GDP-bound KRAS wild-type protein; read-out: KRAS KD
Where a SMILES comes first, the peptide text is derived from it. Bridges are numbered along the chain shown (N, C = ends). [ ]: non-standard residue; d: D form. hPhe(3-Cl-4-CF3) = N[C@@H](CCc1ccc(C(F)(F)F)c(Cl)c1)C(=O)O; NPrPhe(4-CF3) = CCCN[C@@H](Cc1ccc(C(F)(F)F)cc1)C(=O)O; NMeNva(3-Et) = CCC(CC)[C@H](NC)C(=O)O; NMeD = CN[C@@H](CC(=O)O)C(=O)O; NMeL = CN[C@@H](CC(C)C)C(=O)O; NMeA = CN[C@@H](C)C(=O)O; Aze = O=C(O)[C@@H]1CCN1; Ac4c = NC1(C(=O)O)CCC1; Sar = CNCC(=O)O
measurement label: Kd

compound	reported
CCO[C@@H]1C[C@H]2C(=O)NC3(CCC3)C(=O)N(C)[C@@H](C3CCCC3)C(=O)N(C)[C@H](C(=O)N3CCOCC3)CC(=O)N(C)[C@@H](CC(F)F)C(=O)N[C@@H]([C@@H](C)CC)C(=O)N(C)CC(=O)N(C)[C@H]3CCCCCN(C3=O)[C@@H](Cc3ccc(F)cc3)C(=O)N(C)CC(=O)N[C@@H](CCc3cc(F)c(C(F)(F)F)c(F)c3)C(=O)N2C1	0.081 nM
CCCN1C(=O)[C@@H]2CCN2C(=O)[C@H](C)N(C)C(=O)[C@H]([C@@H](C)CC)NC(=O)[C@H](CC(C)C)N(C)C(=O)C[C@@H](C(=O)N(C)C)N(C)C(=O)[C@H](C(CC)CC)N(C)C(=O)C2(CCC2)NC(=O)[C@@H]2CCCN2C(=O)[C@H](CCc2ccc(C(F)(F)F)c(Cl)c2)NC(=O)CN(C)C(=O)[C@@H]1Cc1ccc(C(F)(F)F)cc1 [PP1961] ([NMeL]I[NMeA][Aze][NPrPhe(4-CF3)][Sar][hPhe(3-Cl-4-CF3)]P[Ac4c][NMeNva(3-Et)][NMeD]-NMe2; lactam N-11)	0.22 nM
CCO[C@@H]1C[C@H]2C(=O)NC3(CCC3)C(=O)N(C)[C@@H](C3CCCC3)C(=O)N(C)[C@H](C(=O)N3CCOCC3)CC(=O)N(C)[C@@H](C)C(=O)N[C@@H]([C@@H](C)CC)C(=O)N(C)CC(=O)N(C)[C@H]3CCCCCN(C3=O)[C@@H](Cc3ccc(F)cc3)C(=O)N(C)CC(=O)N[C@@H](CCc3cc(F)c(C(F)(F)F)c(F)c3)C(=O)N2C1	0.16 nM

---

# Kd per entry
system under test: UniProt P01116
assay overview: Binding to KRAS by surface plasmon resonance (SPR), Single Cycle Kinetics
run conditions: SPR Single Cycle Kinetics, GDP-bound KRAS wild-type protein, 1:1 binding model; read-out: KRAS KD

compound	system under test	Kd, nM
CCO[C@@H]1C[C@H]2C(=O)NC3(CCC3)C(=O)N(C)[C@@H](C3CCCC3)C(=O)N(C)[C@H](C(=O)N3CCOCC3)CC(=O)N(C)[C@@H](COC)C(=O)N[C@@H]([C@@H](C)CC)C(=O)N(C)CC(=O)N(C)[C@H]3CCCCN(C3=O)[C@@H](Cc3ccc(C(F)(F)F)cc3)C(=O)N(C)CC(=O)N[C@@H](CCc3cc(F)c(C(F)(F)F)c(F)c3)C(=O)N2C1 [PP0719]	UniProt P01116	0.02
CC[C@H](C)[C@@H]1NC(=O)[C@H](COC)N(C)C(=O)C[C@@H](C(=O)N(C)C)N(C)C(=O)[C@H](C2CCCCC2)N(C)C(=O)C2(CC(C)(C)C2)NC(=O)[C@@H]2C[C@@H](OC(C)C)CN2C(=O)[C@H](CCc2cc(F)c(C(F)(F)F)c(F)c2)NC(=O)CN(C)C(=O)[C@H](Cc2ccc(C)cc2)N2CC/C=C\C[C@@H](C2=O)N(C)C(=O)CN(C)C1=O [PP2660]	UniProt P01116	0.18
CC[C@H](C)[C@@H]1NC(=O)[C@H](CC(F)(F)F)N(C)C(=O)C[C@@H](C(=O)N2CCOCC2)N(C)C(=O)[C@H](C2CCCC2)N(C)C(=O)C2(CCCC2)NC(=O)[C@@H]2CCCN2C(=O)[C@H](CCc2cc(F)c(C(F)(F)F)c(F)c2)NC(=O)CN(C)C(=O)[C@H](Cc2ccc(C(F)(F)F)cc2)N2CCCC[C@@H](C2=O)N(C)C(=O)CN(C)C1=O [PP0594]	UniProt P01116	0.073
